Tested on: IL-2
procedure-text: PHA-IL2 (cell activation and cytokine analysis)
Type: cell-based
applied-conditions: 50% inhibition concentration class
pIC50: −log10 of the molar value.
property: pIC50

1) O=C(COc1ccccc1-c1ccccc1O)N1CCC(CCc2ccc3c(c2)OCO3)CC1 [Compound 169] ... > 6.00
2) CCc1ccc(OCC(=O)N2CCC(CCc3ccc4c(c3)OCO4)CC2)c(-c2ccccc2)c1 [Compound 276] ... > 6.00
3) O=C(COc1ccccc1-c1ccc(F)cc1O)N1CCC(CCc2cccnc2)CC1 [Compound 393] ... 5.00 to 6.00

Okay, now this compound:
Exercise: Entry CN(C)CCNC(=O)c1ccc(OCC(=O)N2CCC(CCc3ccccc3)CC2)c(-c2ccc(C#N)cc2)c1 [Compound 325] has what pIC50?
Key: 5.00 to 6.00

====

# pIC50 per record follows
Test system: IL-2
procedure-text: PHA-IL2 (cell activation and cytokine analysis)
Assay type: cell-based
applied-conditions: 50% inhibition concentration class
pIC50: −log10 of the molar value.

In the examples that follow, each entry is paired with its recorded pIC50.
1) O=C(COc1cccnc1-c1ccc2[nH]ncc2c1)N1CCC(CCc2ccc3c(c2)OCO3)CC1 [Compound 328] ... 5.00 to 6.00
2) COc1cccc(CCC2CCN(C(=O)COc3ccc(C#N)cc3-c3ccc(F)cc3O)CC2)c1 [Compound 352] ... > 6.00
3) O=C(COc1ccccc1-c1cccnc1)N1CCC(CCc2ccc3c(c2)OCO3)CC1 [Compound 194] ... 5.00 to 6.00

With those in mind, consider the next compound.
Exercise: Can you look up the measured pIC50 of O=C(COc1ccccc1-c1ccc2[nH]ncc2c1)N1CCC(CCc2ccc(O)cc2)CC1 [Compound 281] for me?
Key: > 6.00

====

Quick reference: pIC50 of the listed items.
System: IL-2
procedure-text: PHA-IL2 (cell activation and cytokine analysis)
Format: cell-based
applied-conditions: 50% inhibition concentration class
pIC50: −log10 of the molar value.

Exercise: Form: Entry = `O=C(COc1ccccc1-c1ccc2nonc2c1)N1CCC(CCc2ccc3c(c2)OCO3)CC1` | System = IL-2 | pIC50 = ____
Key: 5.00 to 6.00

Exercise: Can you look up pIC50 on IL-2 for `N#Cc1ccc(-c2ccccc2OCC(=O)N2CCC(CCc3ccc4c(c3)OCCO4)CC2)cn1` ?
Key: > 6.00

Exercise: Field: pIC50 (IL-2). Entry: `O=C(COc1ccccc1-c1ccc(F)cc1O)N1CCC(CCc2cccc(OCCN3CCOCC3)c2)CC1`
Key: 5.00 to 6.00

Exercise: Lookup: pIC50 / IL-2 / `COC(=O)c1ccc(CCC2CCN(C(=O)COc3ccccc3-c3ccc(C#N)cc3)CC2)cc1`
Key: > 6.00

====

Tested on: IL-2
procedure-text: PHA-IL2 (cell activation and cytokine analysis)
Format: cell-based
applied-conditions: 50% inhibition concentration class
pIC50: −log10 of the molar value.
property: pIC50

// worked examples, pIC50 included
1) Cc1cnc(CCC2CCN(C(=O)COc3ccc(C#N)cc3-c3ccc(C#N)cc3)CC2)cn1 [Compound 426] ... 5.00 to 6.00
2) Cn1ccc2cc(-c3ncccc3OCC(=O)N3CCC(CCc4cccc(OCCN5CCOCC5)c4)CC3)ccc21 [Compound 380] ... 5.00 to 6.00
3) C#CCOc1ccc(C(=O)c2ccc(-c3ccccc3OCC(=O)N3CCC(CCc4cccc(OC(C)C)c4)CC3)cc2)cc1 [Compound 419] ... 5.00 to 6.00
4) O=C(COc1ccccc1-c1ccc(O)cc1)N1CCC(CCc2ccc3c(c2)OCO3)CC1 [Compound 170] ... 5.00 to 6.00
5) O=C(/C=C/c1cc2c(cc1-c1ccccc1)OCO2)N1CCC(CCc2ccc(O)cc2)CC1 [Compound 111] ... 5.00 to 6.00
6) C#CCOc1ccc(CCC2CCN(C(=O)COc3ccccc3-c3ccc(C(=O)c4ccccc4)cc3)CC2)cc1 [Compound 412] ... 5.00 to 6.00
7) N#Cc1ccc(-c2cc(C(=O)Nc3ccccc3)ccc2OCC(=O)N2CCC(CCc3ccccc3)CC2)cc1 [Compound 369] ... 5.00 to 6.00
8) O=C(COc1ccccc1-c1ccc(F)cc1)N1CCC(CCc2ccc3c(c2)OCCO3)CC1 [Compound 294] ... 5.00 to 6.00
9) CC(C)Oc1cccc(CCC2CCN(C(=O)COc3ccccc3-c3ccc4[nH]cnc4c3)CC2)c1 [Compound 398] ... > 6.00
10) O=C(COc1ccccc1-c1ccccc1)N1CCC(CCc2ccc(F)c(F)c2)CC1 [Compound 120] ... > 6.00

Exercise: Consider the compound Cc1nc2cc(-c3ccccc3OCC(=O)N3CCC(CCc4ccc5c(c4)OCO5)CC3)ccc2[nH]1 [Compound 388] and give its measured pIC50.
Key: > 6.00

Exercise: Dear colleague, I am looking for the recorded pIC50 of the following compound: N#Cc1ccc(-c2cc(C(=O)N3CCOCC3)ccc2OCC(=O)N2CCC(CCc3ccccc3)CC2)cc1 [Compound 318]
Key: 5.00 to 6.00

Exercise: Recorded pIC50 for CCCC(Oc1ccccc1-c1ccccc1)C(=O)N1CCC(CCc2ccc3c(c2)OCCCO3)CC1 (stereo not shown) [Compound 210] , please?
Key: > 6.00

Exercise: Requested field: pIC50. Item: N#Cc1ccc(OCC(=O)N2CCC(CCc3ccc4c(c3)OCO4)CC2)c(-c2ccc(F)cc2O)c1 [Compound 346]
Key: > 6.00

Exercise: Request the reported pIC50 associated with COc1ccc(CCC2(O)CCN(C(=O)COc3ccc(F)cc3-c3ccccc3)CC2)cc1 [Compound 176]
Key: 4.30 to 5.00

Exercise: Return reported pIC50; argument: Cc1ccc(C#CC2CCN(C(=O)COc3ccc(C#N)cc3-c3ccc(C#N)cc3)CC2)nn1 [Compound 428]
Key: 5.00 to 6.00

Exercise: Form field: reported pIC50 of N#Cc1ccc(OCC(=O)N2CCC(CCc3cccc4ccccc34)CC2)c(-c2ccc(F)cc2O)c1 [Compound 401]
Key: > 6.00

Exercise: What value of pIC50 has been recorded for this entry: COc1cc(CCC2CCN(C(=O)COc3cccnc3-c3ccc(F)cc3O)CC2)ccc1OCCN1CCOCC1 [Compound 381]
Key: 4.30 to 5.00

Exercise: Name the recorded pIC50 for N#Cc1ccc(-c2ccccc2OCC(=O)N2CCC(CCc3ccc4c(c3)NC(=O)CO4)CC2)cc1 [Compound 257] .
Key: 5.00 to 6.00

Exercise: Quick one: pIC50 of O=C(CCc1ccccc1-c1ccc(F)cc1)N1CCC(CCc2ccc3c(c2)OCO3)CC1 [Compound 222] ?
Key: 5.00 to 6.00

Exercise: Form field: reported pIC50 of NC(=O)c1cccc(-c2ccccc2OCC(=O)N2CCC(CCc3ccc4c(c3)OCO4)CC2)c1 [Compound 162]
Key: 5.00 to 6.00

Exercise: What value of pIC50 has been recorded for this entry: N#Cc1ccc(-c2ncccc2OCC(=O)N2CCC(CCc3ccc4c(c3)OCCO4)CC2)cn1 [Compound 335]
Key: 5.00 to 6.00

Exercise: What does the data say about its pIC50? Entry: O=C(COc1ccccc1-c1ccc(-c2ccccc2)cc1)N1CCC(CCc2ccc3c(c2)OCO3)CC1 [Compound 218]
Key: 5.00 to 6.00
